// data source = paper PMC10397247

# targetOfAssay: T1, 4H_APH
# T1 chain: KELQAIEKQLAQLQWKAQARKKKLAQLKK
# testMethodNotes: two-hybrid library CCmax;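 further: natural log of median RNA to DNA barcode read ratio; higher means stronger binding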
# measurementContext: mean of both orientations
reportedMetric: interaction score

For orientation, consider the following solved cases.
DKIAALKAENAALKAENAALEAKIAALKG [4H2774-AA] ... -1.61
DEIAALKAKIAALKAKNAALKAKNAALEG [4H895-AA] ... -1.22
DEIAALEAKIAALKAENAALEAEIAALEG [4H337-AA] ... -1.22

[A] DENAALKAKIAALEAENAALKAKIAALEG [4H1821-AA]
[B] DEIAALEAEIAALEAKNAALEAKNAALKG [4H56-AA]
Lookup: Between A and B , which one shows the larger interaction score value? Label of pick, please.
Found: B
(B: -1.29, A: -2.19)
